- assay system: Lipopolysaccharide heptosyltransferase 1 (Escherichia coli (strain K12))
- Sequence (P24173 whole entry): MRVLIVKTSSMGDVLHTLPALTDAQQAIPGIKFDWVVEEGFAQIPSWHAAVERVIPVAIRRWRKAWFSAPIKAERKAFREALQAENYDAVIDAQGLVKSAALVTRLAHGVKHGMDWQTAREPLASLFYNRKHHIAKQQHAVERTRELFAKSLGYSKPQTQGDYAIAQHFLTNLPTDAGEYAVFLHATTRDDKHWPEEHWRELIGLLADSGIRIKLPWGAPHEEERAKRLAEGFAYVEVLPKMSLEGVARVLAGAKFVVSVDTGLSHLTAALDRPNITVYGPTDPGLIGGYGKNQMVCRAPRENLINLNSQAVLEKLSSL
- assay explanation: Inhibition of Escherichia coli Heptosyltransferase I assessed as reduction in ADP release using ODLA and ADP-heptose substrates in presence of phospho(enol)pyruvate and NADH by pyruvate kinase and LDH based ADP/NADH coupling assay
property measured: pKi
Convention used: pKi is expressed as -log10 of the molar concentration.

>>> value_measured("CO[C@@H]1O[C@H](CO)[C@@H](O)[C@H](O)[C@H]1O")
3.17

Data request: I have this compound here, CCCC/C=C/CO[C@@H]1O[C@H](CO)[C@@H](O)[C@H](O)[C@H]1O , and I need its recorded pKi.
Data returned: 3.47

Data request: Try this compound too: CCCCCCCC/C=C/CO[C@@H]1O[C@H](CO)[C@@H](O)[C@H](O)[C@H]1O
Data returned: 3.28

Data request: Try this compound too: O=C[C@H](O)[C@@H](O)[C@@H](O)[C@H](O)CO
Data returned: 3.30

Data request: Try this compound too: C=CCO[C@@H]1O[C@H](CO)[C@@H](O)[C@H](O)[C@H]1O
Data returned: 3.19

###

- assay system: Lipopolysaccharide heptosyltransferase 1 (Escherichia coli (strain K12))
- assay explanation: Inhibition of Escherichia coli Heptosyltransferase I assessed as reduction in ADP release at 1 mM using ODLA and ADP-heptose substrates in presence of phospho(enol)pyruvate and NADH by pyruvate kinase and LDH based ADP/NADH coupling assay
Activity calls are given as the source filed them. The calls are words filed in the database; no cut-off is given here.
property measured: inhibition

Some solved cases for reference:
>>> value_measured("CCCCCC/C=C/CO[C@H]1O[C@H](CO)[C@H](O)[C@H](O)[C@H]1O")
"8.8%"
>>> value_measured("CO[C@H]1O[C@H](CO)[C@@H](O)[C@H](O)[C@H]1O")
"27.8%"
>>> value_measured("CCCCCC/C=C/CO[C@@H]1O[C@H](CO)[C@H](O)[C@H](O)[C@H]1O")
"6.3%"
>>> value_measured("CCCCCC/C=C/CO[C@@H]1O[C@H](CO)[C@@H](O)[C@H](O)[C@H]1O")
"4.2%"
>>> value_measured("CCCCC/C=C/CO[C@@H]1O[C@H](CO)[C@H](O)[C@H](O)[C@H]1O")
"7.8%"
>>> value_measured("O=C[C@H](O)[C@@H](O)[C@@H](O)[C@H](O)CO")
"28.5%"
>>> value_measured("CO[C@@H]1O[C@H](CO)[C@H](O)[C@H](O)[C@H]1O")
"7%"
>>> value_measured("C=CCO[C@@H]1O[C@H](CO)[C@H](O)[C@H](O)[C@H]1O")
"10%"
>>> value_measured("CCCCCCCC/C=C/CO[C@@H]1O[C@H](CO)[C@H](O)[C@H](O)[C@H]1O")
"5%"
>>> value_measured("CO[C@@H]1O[C@H](CO)[C@@H](O)[C@H](O)[C@H]1O")
"19.5%"

Data request: I have this compound here, CCCCCCCC/C=C/CO[C@H]1O[C@H](CO)[C@H](O)[C@H](O)[C@H]1O , and I need its recorded inhibition.
Data returned: inactive

Data request: Try this compound too: CCCC/C=C/CO[C@@H]1O[C@H](CO)[C@H](O)[C@H](O)[C@H]1O
Data returned: 22.6%

Data request: Try this compound too: CO[C@H]1O[C@H](CO)[C@H](O)[C@H](O)[C@H]1O
Data returned: 8.8%

Data request: Try this compound too: CCCCCCCC/C=C/CO[C@@H]1O[C@H](CO)[C@@H](O)[C@H](O)[C@H]1O
Data returned: 23.4%

Data request: Try this compound too: C=CCO[C@@H]1O[C@H](CO)[C@@H](O)[C@H](O)[C@H]1O
Data returned: 19.6%

Data request: Try this compound too: CCCCCCCCO[C@@H]1O[C@H](CO)[C@@H](O)[C@H](O)[C@H]1O
Data returned: 8.3%

Data request: Try this compound too: CCCCC/C=C/CO[C@@H]1O[C@H](CO)[C@@H](O)[C@H](O)[C@H]1O
Data returned: 11.9%

Data request: Try this compound too: CCCCCC/C=C/CO[C@H]1O[C@H](CO)[C@@H](O)[C@H](O)[C@H]1O
Data returned: 16.7%

Data request: Try this compound too: CCCC/C=C/CO[C@@H]1O[C@H](CO)[C@@H](O)[C@H](O)[C@H]1O
Data returned: 29.7%

Data request: Try this compound too: CCCCCCCC/C=C/CO[C@H]1O[C@H](CO)[C@@H](O)[C@H](O)[C@H]1O
Data returned: inactive
